Attribution: ChEMBL document CHEMBL4834456

pIC50: −log10 of the molar value.
Rho-associated protein kinase 2 (Homo sapiens, UniProt O75116) measurements of pIC50, listed per entry.
Sequence (O75116 whole entry): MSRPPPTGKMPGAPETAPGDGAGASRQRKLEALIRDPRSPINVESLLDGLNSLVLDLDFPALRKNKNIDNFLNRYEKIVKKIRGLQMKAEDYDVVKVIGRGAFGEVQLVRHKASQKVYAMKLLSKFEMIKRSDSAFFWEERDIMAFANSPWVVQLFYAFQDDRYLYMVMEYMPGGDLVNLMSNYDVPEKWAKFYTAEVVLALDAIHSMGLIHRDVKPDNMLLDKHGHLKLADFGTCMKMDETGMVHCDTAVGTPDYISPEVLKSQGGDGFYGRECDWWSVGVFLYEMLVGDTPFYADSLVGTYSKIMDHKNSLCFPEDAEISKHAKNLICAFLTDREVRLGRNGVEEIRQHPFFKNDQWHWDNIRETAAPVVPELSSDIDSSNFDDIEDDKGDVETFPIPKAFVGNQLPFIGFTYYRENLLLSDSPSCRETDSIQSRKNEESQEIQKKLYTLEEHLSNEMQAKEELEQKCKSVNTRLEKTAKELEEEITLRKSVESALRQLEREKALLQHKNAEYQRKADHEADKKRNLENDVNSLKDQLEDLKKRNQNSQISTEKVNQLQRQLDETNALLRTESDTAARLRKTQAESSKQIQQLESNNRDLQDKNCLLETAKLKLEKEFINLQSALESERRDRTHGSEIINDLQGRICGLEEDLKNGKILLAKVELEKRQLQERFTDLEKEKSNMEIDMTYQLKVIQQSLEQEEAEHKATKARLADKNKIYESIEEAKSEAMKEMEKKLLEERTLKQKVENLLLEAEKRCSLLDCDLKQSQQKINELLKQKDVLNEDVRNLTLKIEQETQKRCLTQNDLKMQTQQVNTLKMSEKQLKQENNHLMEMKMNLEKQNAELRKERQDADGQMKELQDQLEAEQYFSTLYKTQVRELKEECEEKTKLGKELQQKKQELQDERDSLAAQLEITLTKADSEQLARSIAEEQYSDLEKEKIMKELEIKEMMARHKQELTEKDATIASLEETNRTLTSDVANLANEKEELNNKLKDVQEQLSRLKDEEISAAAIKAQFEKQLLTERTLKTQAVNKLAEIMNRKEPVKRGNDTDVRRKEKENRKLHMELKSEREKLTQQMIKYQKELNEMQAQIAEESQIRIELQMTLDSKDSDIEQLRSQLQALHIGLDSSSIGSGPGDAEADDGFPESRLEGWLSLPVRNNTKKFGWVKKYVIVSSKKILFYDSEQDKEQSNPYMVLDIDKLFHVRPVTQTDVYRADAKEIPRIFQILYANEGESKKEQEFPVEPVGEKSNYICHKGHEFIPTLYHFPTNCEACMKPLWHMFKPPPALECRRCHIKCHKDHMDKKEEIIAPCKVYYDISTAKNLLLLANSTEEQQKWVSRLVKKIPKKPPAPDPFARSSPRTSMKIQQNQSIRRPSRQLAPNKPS

{"querySmiles": "COc1cccc(CN2CCOc3cc(-c4ccnc5[nH]ccc45)ccc3C2=O)c1", "relation": "=", "pIC50": 7.82}
{"querySmiles": "COc1cccc(CN2CCOc3cc(-c4cncnc4)ccc3C2=O)c1", "relation": "<", "pIC50": 5.00}
{"querySmiles": "COc1cccc(CN2CCCc3cc(-c4ccc5[nH]ncc5c4)ccc3C2=O)c1", "relation": "=", "pIC50": 5.67}
{"querySmiles": "COc1cccc(CN2CCOc3cc(-c4ccc5[nH]ncc5c4)ccc3C2=O)c1", "relation": "=", "pIC50": 6.74}
{"querySmiles": "COc1cccc(CN2CCOc3cc(-c4ccnc(N)c4)ccc3C2=O)c1", "relation": "=", "pIC50": 7.82}
{"querySmiles": "O=Cc1cccc(CN2CCOc3cc(-c4ccncc4)ccc3C2=O)c1", "relation": "=", "pIC50": 7.54}
